# Target Or System: T1, Claudin 18.2 (CLDN18.2), expressed on CHOS-CLDN 18.2 / HEK293-CLDN 18.2 / HCC827-CLDN 18.2 cells (human, UniProt P56856-2 1-261)
# T1 construct: whole, on cells; The species is not repeated for the CHOS-CLDN 18.2 cells; also called claudin-18A2
# Experimental Protocol: FACS, CHOS-CLDN18.2 cells, 5 µg/ml
Readout Type: FACS reading
Reply with the value as a number alone.

Requested field: FACS reading. Item: QP14491448 (antibody, human IgG1, kappa, V domains shown, Humanized from QP199200) VH: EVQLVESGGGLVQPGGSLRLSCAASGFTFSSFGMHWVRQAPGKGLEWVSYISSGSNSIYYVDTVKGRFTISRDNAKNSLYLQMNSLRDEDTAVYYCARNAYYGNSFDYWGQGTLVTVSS VL: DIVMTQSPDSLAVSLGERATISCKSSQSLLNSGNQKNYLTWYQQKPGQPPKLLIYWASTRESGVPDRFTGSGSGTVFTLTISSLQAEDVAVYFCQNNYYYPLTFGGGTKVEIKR
154000

Entry under review: QP14501448 (antibody, human IgG1, kappa, V domains shown, Humanized from QP199200) VH: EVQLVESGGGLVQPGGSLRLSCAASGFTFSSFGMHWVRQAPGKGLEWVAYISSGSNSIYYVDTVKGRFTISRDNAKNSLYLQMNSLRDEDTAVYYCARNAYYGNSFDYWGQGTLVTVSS VL: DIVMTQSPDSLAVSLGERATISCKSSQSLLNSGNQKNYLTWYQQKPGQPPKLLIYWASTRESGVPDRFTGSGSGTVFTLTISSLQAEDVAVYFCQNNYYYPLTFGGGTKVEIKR . Reported FACS reading?
149000

Given QP14501446 (antibody, human IgG1, kappa, V domains shown, Humanized from QP199200) VH: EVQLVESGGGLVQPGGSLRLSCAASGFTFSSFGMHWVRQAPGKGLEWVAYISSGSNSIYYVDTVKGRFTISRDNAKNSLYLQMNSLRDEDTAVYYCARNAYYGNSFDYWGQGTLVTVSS VL: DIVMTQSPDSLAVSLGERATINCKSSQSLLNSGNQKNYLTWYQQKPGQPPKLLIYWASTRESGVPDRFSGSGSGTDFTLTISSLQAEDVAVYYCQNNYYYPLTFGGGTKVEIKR , state its recorded FACS reading.
143000

Given QP199200 (antibody, human IgG1, V domains shown, Chimeric; also called 43C11; mouse-derived chimeric antibody QP199200) VH: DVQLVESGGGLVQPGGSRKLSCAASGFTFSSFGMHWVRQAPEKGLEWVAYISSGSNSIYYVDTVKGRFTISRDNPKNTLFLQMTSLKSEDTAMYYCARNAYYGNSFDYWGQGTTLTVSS VL: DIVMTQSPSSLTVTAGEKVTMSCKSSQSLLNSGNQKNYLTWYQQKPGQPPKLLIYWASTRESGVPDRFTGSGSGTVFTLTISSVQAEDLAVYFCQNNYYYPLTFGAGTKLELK , state its recorded FACS reading.
165000
